Reported hAM1R EC50 (cAMP) values for the following binders.
Target: hAM1R (human, UniProt Q16602)
Experiment: cell-based or functional assay
Numbered stars: 1 amine (or outer) side, 2 acyl side, 3 side chain; on linkers, the order of the positions; unused ones are H or OH. Bridge positions count the residues as written; N and C are the ends. Square brackets hold non-standard residues; d marks the D form. Ends that are not written are not given here. * marks the point of attachment. C20 diacid = O=C(O)CCCCCCCCCCCCCCCCCCC(=O)*; γGlu = O=C(O)[C@H](CCC(=O)[*:2])N[*:1]; Hyp = O=C(O)[C@@H]1C[C@@H](O)CN1; Cit = NC(=O)NCCC[C@H](N)C(=O)O

{C20 diacid-γGlu}-KCNTATCTVQRLAEQIAQFTDKDKDNVAPPTNVGSNG[Hyp]-NH2 (disulfide 2-7 (inferred); not fully specified; ends not checked) [SEQ ID NO: 78]    > 5 µM
KCNTSTCTVA[Cit]LADQITQFSNKDKAQVSPPTEVGPNS[Hyp]-NH2 (disulfide 2-7 (inferred); ends not checked) [SEQ ID NO: 244]    > 5 µM

[Q] Report measured hAM1R EC50 (cAMP); entry is GCRTGTCTVQRLAHQIYQFTDKDKDNVAPRTKISPNGY [SEQ ID NO: 190]
[A] 2.98 µM

Reference source: patent US12139520B2
